Origin of the recorded values: patent US11731965B2

Molecular target: human recombinant D1 receptor (Homo sapiens)
Sequence (P21728 whole entry): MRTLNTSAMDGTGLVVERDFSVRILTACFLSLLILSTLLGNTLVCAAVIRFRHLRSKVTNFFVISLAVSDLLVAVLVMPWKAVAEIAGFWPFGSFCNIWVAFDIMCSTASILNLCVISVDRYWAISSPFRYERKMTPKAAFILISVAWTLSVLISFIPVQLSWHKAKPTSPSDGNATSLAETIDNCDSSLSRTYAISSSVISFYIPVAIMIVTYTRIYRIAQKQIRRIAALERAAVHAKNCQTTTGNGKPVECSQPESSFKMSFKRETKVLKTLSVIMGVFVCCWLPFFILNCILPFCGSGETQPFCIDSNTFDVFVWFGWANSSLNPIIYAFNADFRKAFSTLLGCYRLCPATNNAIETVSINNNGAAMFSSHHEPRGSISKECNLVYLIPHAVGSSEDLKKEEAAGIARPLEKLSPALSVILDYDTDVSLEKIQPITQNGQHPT
Test: D1 antagonistic activity test (LANCE cAMP, antagonism of dopamine-induced cAMP production in HEK293 cells)
Conditions: HEK293 cells expressing human recombinant D1 receptor; test concentration 0.1 nM to 10000 nM; read-out: D1 Antagonistic Activity (IC50, nmol/L)
Entries and their measured IC50 follow.
Express the result in nmol/L but write the number alone.

Solved cases below.
COc1cc2c(cc1N)[C@@H]1Cc3ccc(N)c(OC)c3CN1CC2 [Example 33] : 270
COc1ccc2c(c1OC)CN1CCc3cc(OC)c4[nH]c(=O)[nH]c4c3[C@@H]1C2 [Example 40] : 4
COc1ccc2c(c1OC)CN1CCc3ccc4oc(=O)[nH]c4c3C1C2 (centres unmarked) [Example 49] : 219

# input What measured IC50 goes with COc1cc2c(cc1CNC(C)=O)[C@@H]1Cc3ccc(OC)c(OC)c3CN1CC2 [Example 11] ?
# output 500

# input Fill blank: measured IC50 of the molecule COc1cc2c(cc1OC)[C@@H]1Cc3ccc(OC)c(C(C)=O)c3CN1CC2 [Example 21] is ____.
# output 1500

====

Target: human recombinant D2 receptor (Homo sapiens)
Sequence (P14416 whole entry): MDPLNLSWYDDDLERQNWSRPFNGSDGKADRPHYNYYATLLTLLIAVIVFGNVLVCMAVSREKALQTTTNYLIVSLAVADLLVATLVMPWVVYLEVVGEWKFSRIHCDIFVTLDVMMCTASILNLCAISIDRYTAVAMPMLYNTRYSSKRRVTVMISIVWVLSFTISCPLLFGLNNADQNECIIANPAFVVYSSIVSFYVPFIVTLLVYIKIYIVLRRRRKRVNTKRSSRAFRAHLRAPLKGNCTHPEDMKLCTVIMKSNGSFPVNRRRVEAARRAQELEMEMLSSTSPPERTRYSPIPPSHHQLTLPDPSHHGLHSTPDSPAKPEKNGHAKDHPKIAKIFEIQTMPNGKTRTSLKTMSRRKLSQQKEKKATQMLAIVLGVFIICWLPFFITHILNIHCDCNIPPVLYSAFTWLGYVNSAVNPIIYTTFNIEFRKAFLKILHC
Experiment: D2 antagonistic activity test (LANCE cAMP, antagonism of dopamine inhibition of cAMP production in HEK293 cells)
Conditions: HEK293 cells expressing human recombinant D2 receptor; test concentration 0.1 nM to 10000 nM; read-out: D2 Antagonistic Activity (IC50, nmol/L)
pIC50: −log10 of the molar value.
Label fulfilled when pIC50 >= 7; otherwise not fulfilled.

COc1ccc2c(c1OC)CN1CCc3cc4[nH]c(=O)oc4cc3C1C2 (centres unmarked) : not fulfilled
COc1cc2c(cc1Br)[C@@H]1Cc3ccc(OC)c(OC)c3CN1CC2 : not fulfilled
COc1cc2c(cc1NS(C)(=O)=O)[C@@H]1Cc3ccc(OC)c(OC)c3CN1CC2 : fulfilled
COc1ccc2c(c1OC)CN1CCc3cc(OC)c4nn[nH]c4c3[C@@H]1C2 : fulfilled

Now turn to the next compound.
# input Does COc1cc2c(cc1OC)[C@@H]1Cc3ccc(OC)c(OCCO)c3CN1CC2 have a reported pIC50 of at least 7?
# output not fulfilled

====

Biological target: human recombinant 5-HT1A receptor (Homo sapiens)
Sequence (P08908 whole entry): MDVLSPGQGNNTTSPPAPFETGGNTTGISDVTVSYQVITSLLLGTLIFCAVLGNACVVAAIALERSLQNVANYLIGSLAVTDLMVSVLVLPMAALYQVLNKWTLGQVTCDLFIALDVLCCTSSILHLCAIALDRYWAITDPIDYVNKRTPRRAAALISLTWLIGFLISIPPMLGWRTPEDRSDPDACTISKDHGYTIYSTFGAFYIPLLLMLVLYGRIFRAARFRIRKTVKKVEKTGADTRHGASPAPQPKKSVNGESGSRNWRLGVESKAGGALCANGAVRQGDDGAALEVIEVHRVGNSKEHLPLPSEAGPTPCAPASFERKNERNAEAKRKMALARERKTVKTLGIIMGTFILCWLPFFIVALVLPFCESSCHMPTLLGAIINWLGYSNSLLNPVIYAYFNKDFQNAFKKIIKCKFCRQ
Assay: 5-HT1A agonistic activity test (LANCE cAMP, inhibition of cAMP production in HEK293 cells)
Details: HEK293 cells expressing human recombinant 5-HT1A receptor; test concentration 0.1 nM to 10000 nM; read-out: 5-HT1A Agonistic Activity (EC50, nmol/L)
Where a name gives a salt, the structure may show the parent alone.
Examples of compounds with documented EC50 follow.
API: value field is a number in nmol/L; no unit string.

The cases that follow already have their EC50 on record.
COc1cc2c(cc1OC)[C@@H]1Cc3ccc(C#N)c(OC)c3CN1CC2 : 1200
COc1cc2c(cc1NC(C)=O)[C@@H]1Cc3ccc(OC)c(OC)c3CN1CC2 [Example 14, hydrochloride] : 514
COc1cc2c(cc1CNC(C)=O)[C@@H]1Cc3ccc(OC)c(OC)c3CN1CC2 : 1700
COc1cc2c(cc1C#N)[C@@H]1Cc3ccc(C#N)c(OC)c3CN1CC2 : 3030
COc1cc2c(cc1C(C)=O)[C@@H]1Cc3ccc(OC)c(OC)c3CN1CC2 : 2300

# input Look up EC50 for this compound: COc1cc2c(cc1OC)[C@@H]1Cc3ccc(OC)c(OCCO)c3CN1CC2
# output 150

# input Could you share which EC50 value was measured for COc1ccc2c(c1OC)CN1CCc3cc(C#N)c(C#N)cc3C1C2 (centres unmarked) ?
# output 5900

# input Entry under review: COc1cc2c(cc1C(N)=O)[C@@H]1Cc3ccc(C(N)=O)c(OC)c3CN1CC2 . Reported EC50?
# output 4580
